System: T47D
assayMethodText: Cytotoxicity against human T47D cells assessed as growth inhibition at 10 uM after 48 hrs by SRB assay relative to control
Type: functional
reportedConditions: read-out: GI
Kindly state inhibition of growth at 10 µM for each of the entries shown.
Record the value in %, omitting the unit from your answer.

Which inhibition of growth at 10 µM is listed for `O=c1[nH]cc(F)c(=O)[nH]1` ?
56.7

Which inhibition of growth at 10 µM is listed for `CN1CCN(c2ccc3cc(-c4nc5ccccc5[nH]4)c(=O)oc3c2)CC1` ?
23.1

Which inhibition of growth at 10 µM is listed for `O=c1oc2cc(Br)ccc2cc1-c1nc2ccccc2[nH]1` ?
28.4

Which inhibition of growth at 10 µM is listed for `O=c1oc2cc(NCCO)ccc2cc1-c1nc2ccccc2[nH]1` ?
70.7

---

Tested on: RPMI-8226
assayMethodText: Cytotoxicity against human RPMI8226 cells assessed as growth inhibition at 10 uM after 48 hrs by SRB assay relative to control
Type: functional
reportedConditions: RPMI-8226, 48 h, read-out: GI
metricName: inhibition of growth at 10 µM (%)
Record the value in %, omitting the unit from your answer.

Value wanted: inhibition of growth at 10 µM (RPMI-8226) of entry `CN1CCN(c2ccc3cc(-c4nc5ccccc5[nH]4)c(=O)oc3c2)CC1`
35.4

Value wanted: inhibition of growth at 10 µM (RPMI-8226) of entry `O=c1oc2cc(NCCO)ccc2cc1-c1nc2ccccc2[nH]1`
46.6

Value wanted: inhibition of growth at 10 µM (RPMI-8226) of entry `O=c1[nH]cc(F)c(=O)[nH]1`
41.4

---

Test system: HOP-62
assayMethodText: Cytotoxicity against human HOP62 cells assessed as growth inhibition at 10 uM after 48 hrs by SRB assay relative to control
Assay type: functional
reportedConditions: HOP-62, 48 h, read-out: GI
Kindly state inhibition of growth at 10 µM for each of the entries shown.

Which inhibition of growth at 10 µM is listed for `O=c1oc2cc(NCCO)ccc2cc1-c1nc2ccccc2[nH]1` ?
24.8%

Which inhibition of growth at 10 µM is listed for `O=c1oc2cc(N3CCOCC3)ccc2cc1-c1nc2ccccc2[nH]1` ?
< 20%

Which inhibition of growth at 10 µM is listed for `O=c1[nH]cc(F)c(=O)[nH]1` ?
47.8%

---

System: MDA-MB-231
assayMethodText: Cytotoxicity against human MDA-MB-231 cells assessed as growth inhibition at 10 uM after 48 hrs by SRB assay relative to control
Type: functional
reportedConditions: MDA-MB-231, 48 h, read-out: GI
Kindly state inhibition of growth at 10 µM for each of the entries shown.

Which inhibition of growth at 10 µM is listed for `O=c1oc2cc(NCCN3CCOCC3)ccc2cc1-c1nc2ccccc2[nH]1` ?
< 20%

Which inhibition of growth at 10 µM is listed for `O=c1oc2cc(N3CCOCC3)ccc2cc1-c1nc2ccccc2[nH]1` ?
< 20%

Which inhibition of growth at 10 µM is listed for `CN1CCN(c2ccc3cc(-c4nc5ccccc5[nH]4)c(=O)oc3c2)CC1` ?
< 20%

---

Kindly state inhibition of growth at 10 µM for each of the entries shown.
Test system: NCI-H23
assayMethodText: Cytotoxicity against human NCI-H23 cells assessed as growth inhibition at 10 uM after 48 hrs by SRB assay relative to control
Format: functional
reportedConditions: NCI-H23, 48 h, read-out: GI

Which inhibition of growth at 10 µM is listed for `O=c1oc2cc(N3CCOCC3)ccc2cc1-c1nc2ccccc2[nH]1` ?
< 20%

Which inhibition of growth at 10 µM is listed for `O=c1oc2cc(Br)ccc2cc1-c1nc2ccccc2[nH]1` ?
< 20%

Which inhibition of growth at 10 µM is listed for `NCCNc1ccc2cc(-c3nc4ccccc4[nH]3)c(=O)oc2c1` ?
< 20%

Which inhibition of growth at 10 µM is listed for `O=c1oc2cc(NCCN3CCOCC3)ccc2cc1-c1nc2ccccc2[nH]1` ?
< 20%
